Taken from PubChem BioAssay AID1159606.

- test summary: inhibitors of TWEAK-Fn14 signaling, primary screen, luciferase reporter cells, uHTS (AID 1159606)
- details: TWEAK-stimulated Fn14 reporter cells, luciferase luminescence, 8 h; at 10 µM
About 7,300 (2%) of roughly 360,000 compounds were called active. Rule as the data show it: active = inhibition above about 50%; inactive = the rest. The sample as a whole holds a higher share of actives than the screen did.
Returns: one label drawn from 1.0 = active, 0.0 = inactive

Examples with answers:
> print(dat)
                                   compound  group.label
1      CCOC(=O)c1cc(NC(=O)SCC(=O)O)c(C)nc1C          0.0
2  O=[N+]([O-])c1ccc(F)cc1Oc1nc(-c2cccnc2)nc2ccccc12          1.0
3  COCC1CCCCN1C(=O)c1cc(COc2ccc(C)c(C)c2)on1 (stereo not given)          0.0
4  CCC1CCCCN1C(=O)CSc1nc2c(c(=O)n1C)SC(C)C2 (stereo not given)          0.0
5          CCOc1ccc(N/C=C/C(=O)c2ccccc2)cc1          1.0
6  CCOc1ccc2c(c1)c(=O)c(S(=O)(=O)c1ccc(C)cc1)cn2CC          0.0
7  O=C1c2ccccc2C(=O)N1CCC#Cc1ccc2cc(C3(O)CCCCC3)oc(=O)c2c1          1.0
8  Cc1cccc(CN2CCN(C3CN(Cc4cn(Cc5ccccc5F)nn4)S(=O)(=O)C3)CC2)c1 (stereo not given)          0.0
9  CCN(CC(=O)NC1CCS(=O)(=O)C1)c1nc(-c2cccnc2)nc2ccccc12 (stereo not given)          0.0

Query: // outcome(item) with item = CC(=O)c1ccc(S(=O)(=O)N(C)CCCC(=O)N(C)Cc2ccccc2F)cc1
Result: 0.0

----------
- test summary: inhibitors of TWEAK-Fn14 signaling, primary screen, luciferase reporter cells, uHTS (AID 1159606)
- details: TWEAK-stimulated Fn14 reporter cells, luciferase luminescence, 8 h; at 10 µM; stronger effect = higher value
The whole screen tested about 360,000 compounds, of which about 7,300 (2%) were called active. Shown is part of a subset that was picked to be rich in actives.
parameter measured: inhibition (%)
Field format: number, assumed %, no unit text.

Solved cases (10 shown):
> print(dat)
                                    compound  assay.value
 1  Cc1ccc(F)cc1S(=O)(=O)Nc1cccc(C(=O)N2CCCC(C(N)=O)C2)c1 (stereo unspecified)        -7.05
 2  CN1CCN(c2ccc(NC(=O)c3ccc4c(c3)OCCO4)cc2Cl)CC1         17.5
 3      COc1ccc(Nc2cc(Sc3ccc(OC)cc3)ncn2)cc1         69.9
 4           COc1ccc(Nc2cc(=O)oc3ccccc23)cc1         12.8
 5     Cc1cc(Cl)ccc1-c1nc(NCCN(C)C)nc2ccsc12        -11.1
 6       CCCc1cc(C(=O)Nc2ccc(C(=O)OC)cc2)cs1        -11.7
 7  CCN(CC)CCNC(=O)c1ccc(NS(=O)(=O)c2ccc3c(c2)OCCO3)cc1         2.79
 8            CCCc1cc(C(=O)Nc2ccc(Cl)cn2)cs1         58.8
 9  CC(OC(=O)c1ccc2ccccc2n1)C(=O)c1ccccc1 (stereo unspecified)        -11.2
10  CC(NS(=O)(=O)c1ccc(Cl)cc1)C(=O)Nc1ccc2c(c1)OCCO2 (stereo unspecified)         32.7

Moving on to the next compound.
So for COc1ccc(Sc2ccc(NC(=O)c3cccc(Cl)c3)cc2C#N)cc1 , the logged inhibition turned out to be 26.3

----------
- test summary: inhibitors of TWEAK-Fn14 signaling, primary screen, luciferase reporter cells, uHTS (AID 1159606)
- details: TWEAK-stimulated Fn14 reporter cells, luciferase luminescence, 8 h; at 10 µM; stronger effect = higher value
About 7,300 (2%) of roughly 360,000 compounds were called active. Shown is part of a subset that was picked to be rich in actives.
Quick rule: inhibition of at least 20% means TRUE, below that means FALSE.

Here's what some known entries look like.
> print(dat)
                                   compound  group.label
1  O=C(NCCc1ccccc1)c1cccc(NC(=O)c2ccccc2)c1        FALSE
2  COc1ccc(CNC(=O)C[C@H]2C[C@H](C(=O)N3CCOCC3)[C@@]3(CCC4CCCC4)c4[nH]c5ccc(Cl)cc5c4CCN3C2=O)cc1OC         TRUE
3  COc1ccc2[nH]c3c(c2c1)CCN1C(=O)C(CC(=O)NCCCN(C)C)C[C@H](C(=O)N2CCOCC2)[C@@]31CCC1CCCC1 (some centres undefined)        FALSE

Please turn your attention to the following entry.
Query: Check if inhibition >= 20% (inclusive). Item: O=C(COC(=O)C1CCCO1)Nc1nc(-c2ccc(F)cc2)cs1 (centres undefined)
Result: FALSE

----------
Each entry below carries its recorded inhibition.
- test summary: inhibitors of TWEAK-Fn14 signaling, primary screen, luciferase reporter cells, uHTS (AID 1159606)
- details: TWEAK-stimulated Fn14 reporter cells, luciferase luminescence, 8 h; at 10 µM; stronger effect = higher value
Among all 360,000 compounds or so, about 7,300 (2%) were called active. The entries come from a sample that favours actives as a whole.
Answer with a number only, understood to be in %.

Here's what some known entries look like.
> print(dat)
                                   compound  assay.value
1   CC(C)(C)c1ccc(/C=C/C(=O)NCCCn2ccnc2)cc1         13.5
2                 O=c1c2c(nc3nc[nH]n13)CCC2         1.33
3  Cc1nc(CNS(=O)(=O)c2ccc(Oc3ccccc3)cc2)cs1         23.5
4  NC(=O)C1CC(=O)N(c2ccc(OCC(=O)NCc3ccccc3)cc2)C1 (stereo unspecified)         32.7
5  COc1ccc(S(=O)(=O)N2CN(CCc3ccc(OC)c(OC)c3)c3nc4ccccc4nc32)cc1           14
6  O=c1c2c(nc3cc(-c4cccc(Cl)c4)[nH]n13)CCCC2         75.5
7  C[C@H]1CN([C@@H](C)CO)C(=O)CCCn2cc(nn2)CO[C@@H]1CN(C)S(=O)(=O)c1ccc(-n2cccn2)cc1        -16.6
8  CCCOc1ccc(C(=O)C(CCC(CNCC)C(=O)c2ccc(OCCC)cc2)CNCC)cc1 (stereo unspecified)          103

# compound O=S1(=O)CSCS(=O)(=O)C1 ; its inhibition = -11.8

Entry COCc1cc(=O)[nH]c2cc(NC(=O)C(F)(F)F)c(C)cc12 ; inhibition = 6.5

Sure, the documented inhibition for O=C(OCC(=O)N1CCCCCC1)c1ccc(Br)c(S(=O)(=O)N2CCOCC2)c1 is -3.85

----------
- test summary: inhibitors of TWEAK-Fn14 signaling, primary screen, luciferase reporter cells, uHTS (AID 1159606)
- details: TWEAK-stimulated Fn14 reporter cells, luciferase luminescence, 8 h; at 10 µM
The campaign covered roughly 360,000 compounds. About 7,300 (2%) were called active. Rule as the data show it: active = inhibition above about 50%; inactive = the rest. Many of the other results were omitted from the sample, so actives are more common in it than they were.
Outcomes you can answer with include only these: YES = active, NO = inactive

Observe how each entry below is paired with its result.
> print(dat)
                                  compound  group.label
1     Clc1ccc2nc(-c3ccccc3)nc(C(Cl)Cl)c2c1          YES
2   O=C(Cc1ccc(Cl)cc1)NCc1nc(-c2ccccc2)no1           NO
3     NC(N)=Nc1nc(-c2ccccc2)c2cc(Cl)ccc2n1           NO
4  COCCNc1nc(NCc2ccc(NC(C)=O)cc2)c2sccc2n1           NO

Pending compound:
Query: Status in this test for COCCNC(=O)c1cc2c(Br)ccc(Br)c2nc1N ?
Result: NO

----------
- test summary: inhibitors of TWEAK-Fn14 signaling, primary screen, luciferase reporter cells, uHTS (AID 1159606)
- details: TWEAK-stimulated Fn14 reporter cells, luciferase luminescence, 8 h; at 10 µM
Among all 360,000 compounds or so, about 7,300 (2%) were called active. No stated cut-off is given here; in the data, active means inhibition above about 50%; inactive means the rest. The entries come from a sample that favours actives as a whole.
Valid outcomes are listed here; reply with one: active, inactive

Past entries and their recorded results:
> print(dat)
                                   molecule  group.label
1           COC(=O)c1ccc(NCc2cc(O)ccc2O)cc1       active
2  Cc1ccc(N2C(=O)CC(Nc3cccc4ccccc34)C2=O)cc1 (stereo unspecified)       active
3  CC(CN1CCCCC1)OC(=O)c1ccccc1Cl (stereo unspecified)     inactive
4             O=C(O)Cc1ccc(NCc2ccccc2Cl)cc1     inactive
5     CC(C)OC(=O)c1ccc(NCc2cc(O)ccc2O)cc1Cl       active

Query: What did this assay record as the result for O=C(Cc1ccccc1)NNC1CC(=O)N(c2ccc(Br)cc2)C1=O (stereo unspecified) ?
Result: inactive
